System: Coxsackie virus B6
Test: Coxsackie virus activity assay (CPE in Vero cells)
Type: cell-based
Details: Vero, read-out: COX-B6 IC50, Vero cells, about 100TCID50, CPE, Reed-Muench
Strictly below 2 mg/L in IC50: 1.0. Otherwise: 0.0.

Record excerpt, results attached:
COC(=O)c1c(/C=C/c2ccccc2)cc(OC)c(CC=C(C)C)c1OC(C)=O [Compound 24g]
1.0
COc1cccc(/C=C/c2cc(OC)c(CC=C(C)C)c(O)c2C(=O)O)n1
0.0
COc1cc(/C=C/c2ccccc2)c(C(=O)O)c(OC(=O)C(=O)O)c1CC=C(C)C [Compound 31b]
1.0
C/C(=C\c1cc(O)cc(O)c1)c1cc(O)cc(O)c1 [Compound 21h]
0.0
COc1cc(/C=C/c2ccccc2)c(C(=O)Nc2ccc(Cl)cc2)c(O)c1CC=C(C)C
0.0

Does the reported IC50 of COc1cc(/C=C/c2ccc(O)cc2)cc(O)c1CC=C(C)C [Compound 10q] stay below 2 mg/L?
0.0

Does the reported IC50 of Oc1cc(O)cc(/C=C/c2cc(O)c(O)c(O)c2)c1 [Compound 21k] stay below 2 mg/L?
1.0

Does the reported IC50 of COC(=O)c1c(/C=C/c2ccccn2)cc(OC)c(CC=C(C)C)c1O stay below 2 mg/L?
1.0

Does the reported IC50 of COC(=O)c1c(/C=C/c2ccccc2)cc(OC)c(C/C=C(\C)CCC=C(C)C)c1O stay below 2 mg/L?
0.0
